- Substrate: C=CC1=C(C)/C(=C/c2[nH]c(/C=C3N=C(/C=C4\NC(=O)C(C)=C4C=C)C(C)=C\3CCC(=O)O)c(CCC(=O)O)c2C)NC1=O
- test.summary: steady-state kinetics, A450 bilirubin formation
- Format: biochemical, Synechocystis sp. PCC 6803
- condition.details: 100 μM NADPH, 100 mM citrate pH 5.75
property.measured: Km (µM)
Respond numerically; units are µM and should not be typed.

Prompt: I'd like to know its Km. The protein in question is Syn BVR (Synechocystis sp. PCC 6803 substr. Kazusa; Y102F) (protein, full length, 328 residues; N-terminal His6 tag (pET15b), E. coli C41(DE3); tag cut with thrombin for crystals) MSENFAVATPVRVGIVGTGYAAQRRAEVFRGDRRSQLVSFWGNSEANTAKFADTFGVRPQQSWQALINDPEIDLVLIATINQLHGAIAEAALQAGKHVVLEFPLALTYAMGKKLQQLAREKGKLLHVEHIELLGGVHQAIRQNLGKIGEVFYARYSTIMGQNPAPQRWTYHHQQFGFPLVAALSRISRFTDLFGTVQQVDAQCRFWDQPNPEYFRACLATAYLQFNNGLKAEVIYGKGEVFHQNERIFTLHGDRGTLIFVGETGRLIQGQTETEITVGSRRGLFRQDTEAVLDYLTTGKPLYVDLEASLYALEVADLCAQACGYKVEN
Response: 4.0

Prompt: Same again, this time with Syn BVR (Synechocystis sp. PCC 6803 substr. Kazusa; R246A) (protein, full length, 328 residues; N-terminal His6 tag (pET15b), E. coli C41(DE3); tag cut with thrombin for crystals) MSENFAVATPVRVGIVGTGYAAQRRAEVFRGDRRSQLVSFWGNSEANTAKFADTFGVRPQQSWQALINDPEIDLVLIATINQLHGAIAEAALQAGKHVVLEYPLALTYAMGKKLQQLAREKGKLLHVEHIELLGGVHQAIRQNLGKIGEVFYARYSTIMGQNPAPQRWTYHHQQFGFPLVAALSRISRFTDLFGTVQQVDAQCRFWDQPNPEYFRACLATAYLQFNNGLKAEVIYGKGEVFHQNEAIFTLHGDRGTLIFVGETGRLIQGQTETEITVGSRRGLFRQDTEAVLDYLTTGKPLYVDLEASLYALEVADLCAQACGYKVEN
Response: 5.1

Prompt: Same again, this time with Syn BVR (Synechocystis sp. PCC 6803 substr. Kazusa; T169A) (protein, full length, 328 residues; N-terminal His6 tag (pET15b), E. coli C41(DE3); tag cut with thrombin for crystals) MSENFAVATPVRVGIVGTGYAAQRRAEVFRGDRRSQLVSFWGNSEANTAKFADTFGVRPQQSWQALINDPEIDLVLIATINQLHGAIAEAALQAGKHVVLEYPLALTYAMGKKLQQLAREKGKLLHVEHIELLGGVHQAIRQNLGKIGEVFYARYSTIMGQNPAPQRWAYHHQQFGFPLVAALSRISRFTDLFGTVQQVDAQCRFWDQPNPEYFRACLATAYLQFNNGLKAEVIYGKGEVFHQNERIFTLHGDRGTLIFVGETGRLIQGQTETEITVGSRRGLFRQDTEAVLDYLTTGKPLYVDLEASLYALEVADLCAQACGYKVEN
Response: 3.4
